# tgt: human MPO (Homo sapiens, UniProt P05164)
# Construct: purchased Planta
# Sequence (P05164 279-745 limits assumed): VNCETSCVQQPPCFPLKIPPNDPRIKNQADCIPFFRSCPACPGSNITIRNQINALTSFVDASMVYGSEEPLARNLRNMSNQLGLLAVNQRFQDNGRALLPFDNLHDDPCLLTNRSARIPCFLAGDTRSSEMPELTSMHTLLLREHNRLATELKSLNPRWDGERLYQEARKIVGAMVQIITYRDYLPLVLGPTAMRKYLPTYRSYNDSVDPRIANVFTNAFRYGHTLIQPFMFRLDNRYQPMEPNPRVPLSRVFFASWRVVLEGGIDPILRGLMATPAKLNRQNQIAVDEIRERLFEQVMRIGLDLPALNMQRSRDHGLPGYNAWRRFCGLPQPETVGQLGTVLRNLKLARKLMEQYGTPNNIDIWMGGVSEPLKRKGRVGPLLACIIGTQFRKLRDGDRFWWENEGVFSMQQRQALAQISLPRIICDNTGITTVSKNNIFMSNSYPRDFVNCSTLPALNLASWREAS
# Sequence (P05164 165-273 limits assumed): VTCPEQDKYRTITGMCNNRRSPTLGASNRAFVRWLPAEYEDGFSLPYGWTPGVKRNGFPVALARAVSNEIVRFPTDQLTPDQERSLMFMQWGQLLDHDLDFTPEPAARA
# measurement_protocol: in vitro MPO assay measuring production of hypochlorus acid (HOCl)
# Type: biochemical
# setup_conditions: read-out: Inhibition of human MPO-HOCl production, pIC50 (converted)
Listed next: entries and their corresponding log10 IC50.
readout: log10 IC50 (log10 of the value in µM)

- molecule: "CC(=O)Nc1ccc(S(=O)(=O)Nc2ccc([N+](=O)[O-])cc2)cc1"
  log10 IC50: 0.90
- molecule: "N=C(N)c1ccc(N)cc1"
  log10 IC50: 0.40
- molecule: "Cc1noc(NS(=O)(=O)c2ccc(N)cc2)c1C"
  log10 IC50: 0.80
- molecule: "Nc1ccc(S(=O)(=O)Nc2ncccn2)cc1"
  log10 IC50: 0.80
- molecule: "Cc1c[nH]c2ccccc12"
  log10 IC50: 0.10
- molecule: "COc1ccc2[nH]ccc2c1"
  log10 IC50: 0.40
- molecule: "CN1C(C(=O)Nc2ccccn2)=C(O)c2ccccc2S1(=O)=O"
  log10 IC50: 0.40
- molecule: "COc1cc(C=O)ccc1O"
  log10 IC50: 0.90
- molecule: "Nc1ccc(S(N)(=O)=O)cc1 [Sulfanilamide]"
  log10 IC50: 0.00
- molecule: "CCOC(=O)c1cccc(N)c1"
  log10 IC50: -0.20
- molecule: "[H]/N=C(/N)NS(=O)(=O)c1ccc(N)cc1"
  log10 IC50: 0.50
- molecule: "COc1ccc2cc[nH]c2c1"
  log10 IC50: 0.20
- molecule: "COc1ccc2[nH]cc(CCNC(C)=O)c2c1"
  log10 IC50: -0.10
- molecule: "Nc1ccc(S(=O)(=O)c2ccc(N)cc2)cc1"
  log10 IC50: -0.20
- molecule: "Nc1ccc(S(=O)(=O)Nc2ccccn2)cc1"
  log10 IC50: 0.30

Measured values drawn from patent US20040029871A1 for this set.
